- target_or_test_system: T1, cynomolgus monkey Protein S (cynomolgus monkey)
- T1 construct: also called cyno Protein S
- procedure_text: BLI Octet; antibody on anti-human Fc probe; Protein S 7.81-500 nM; 4 mM CaCl2
Reported kon values follow for various binders
Write the number in M⁻¹ s⁻¹ without appending the unit.

Observe how each entry below is paired with its result.
| binder | kon, M⁻¹ s⁻¹ |
| --- | --- |
| Antibody 4 (antibody, V domains shown, Same variable regions as Antibody 16) VH: QVQLVESGGGVVQPGRSLRLSCAASGFTFSTYGFHWVRQPPGKGLEWVAVIYYDGINKYYADSVKGRFTISRDNSKNTLFLQMNSLRAEDTAVYYCAESDLDYWGQGTLVTVSS VL: EIVLTQSPATLSLSPGERATLSCRASQSVSIYLAWYQQKPGQAPRLLIYDASNRATGIPARFSGSGSGTDFTLTISSLEPEDFAVYYCQQRSNWPLTFGPGTKVDIK | 201000 |
| Antibody 27 (antibody, V domains shown, Same variable regions as Antibody 33) VH: QVQLQQSGPGLVKPSQTLSLTCAISGDSVSNNNAAWNWIRQSPSRGLEWLGGTYYRSKWYNDYAVSVKSRIIINPVTSKNQFSLQLNSVTPEDTAVYYCARGSSWYRFFDYWGQGTLVTVSS VL: EIVLTQSPGTLSLSPGERATLSCRASQSVGSSYLAWYQQKPGQAPRLLISGASGRATGIPDRFSGSGSGTDFTLTISRLEPEDFTVYYCQQYGSSPYTFGQGTKLEIK | 67900 |
| Antibody 11 (antibody, V domains shown, Same variable regions as Antibody 23) VH: QVQLVQSGAEVKKPGASVKVSCKSSGHTFTGYYMHWVRQAPGQGLEWMGWINPNSGDTNYAQKFQGRVTMTRDTSISTAYMEMSRLRSDDTAVYYCARDSQILWFGELGYWGQGTLVTVSS VL: QAVVTQESALTTSPGETVTLTCRSSTGAVTASNYANWVQEKPDHLFTGLIGSTNNRAPGVPARFSGSLIGDKAALTITGAQTEDEAIYFCALWYSDHFVFGGGTKLTVL | 82100 |

Just so you know, measured kon for Antibody 28 (antibody, V domains shown) VH: QVQLQQSGTELVRPGTSVKMSCKAAGYTFTNHWIGWVKQRPGHGLEWIGDIYPGGGYTNYNEKFKGKASLTADTSSTTAYMQLSSLTSEDSAIYYCSRFGDQNWAWFAYWGQGTLVTVSA VL: DIQMNQSPSSLSASLGDTITITCRASQNIHMWLSWYQQKPGNIPKLLIFKTSNLHTGVPSRFSGSGSGTDFTLTISSLQPEDIATYYCLQGQSYPFTFGGGTKLEIK came out at 109000

Sample Antibody 2 (antibody, V domains shown, Same variable regions as Antibody 14) VH: QVQLQESGPGLVKPSQTLSLTCTVSGGSITSDGYHWSWIRQYPGKGLDWIGYIYYTGNTYYNPSLKSRVTISVGTSQNQFSLKLISVTAADTAVYYCARRLSTGPYFDYWGQGTLVTVSS VL: QSALTQPASVSGSPGQSITISCTGTSSDVGGYEFVSWYQHHPGKAPKLMIYDVSSRPSGVSNRFSGSKSGNTASLTISGLQAEDEADYYCSSYTRSSTVVFGGGARLTVL ; kon observed: 154000

// kon lookup, binder = Antibody 29 (antibody, V domains shown, Same variable regions as Antibody 35) VH: QLQLQESGPGLVKPSETLSLTCTVSGGSITNSNYYWGWIRQPPGKGLEWIGSVYYSGTTYYNPSLKSRVTISVDPSKNQFSLKLSSVTAADTAVYYCVRESESYYYYGSDVWGQGTTVTVSS VL: DIQMTQSPSSLSASVGDRVTITCRASQGINNYLAWFQQKPGKAPKSLIYAASSLQSGVPSKFSGSGSGTDFTLTISSLQPEDFATYYCQQYNSYPRTFGQGTKVEIK , result: 88200

Quick note, kon for Antibody 25 (antibody, V domains shown, Same variable regions as Antibody 31) VH: QVQLQESGPGLVKPSETLSLTCTVSGGSISGNYWSWIRQPPGKGLEWIGYIYYSGSTNYNPSLKSRVTISVDTSKNQFSLKLSSVTAADTAVYYCARDLDYFTWGAYSDWYFDLWGRGTLVTVSS VL: DIQMTQSPSSLSASVGDRVTITCRASQSISTFLNWYQQKPGKAPKLLIYATSSLRSGVPSRFSGSGSGTDFTLTISSLQPEDFAIYYCQQSYSTPRTFGQGTQVEIK landed at 124000

// kon lookup, binder = Antibody 41 (antibody, V domains shown, Same variable regions as Antibody 42) VH: QVQLVQSGSEVKKPGASVKVSCKASGYTFTNYYIHWVRQAPGQGLEWMGIITPSGGTTSYAQKFQGRVTMTRDTSTNTVYMGLSSLRSEDTAMYYCARAGVQLDRRGWFDPWGQGTLVTVSS VL: SYELTQPPSVSVSPGQTASITCSGDKLGDKYVFWYQQKPGQSPVLVIYQDSKRPSGIPERFSGSNSGNTATLTISGTQTMDEADYYCQAWDSSTVGFGGGTKLAVL , result: 96400
